- assayed system: fusion protein PRH
- Sequence (chain, as listed by the source): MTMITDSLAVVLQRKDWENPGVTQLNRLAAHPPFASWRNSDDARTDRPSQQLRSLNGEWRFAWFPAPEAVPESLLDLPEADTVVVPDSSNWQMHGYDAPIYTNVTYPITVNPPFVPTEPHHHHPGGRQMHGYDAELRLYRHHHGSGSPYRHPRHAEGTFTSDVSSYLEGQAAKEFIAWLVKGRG
measured parameter: relative cleavage efficiency

OmpT protease variant OmpT D97H (protein) STETLSFTPDNINADISLGTLSGKTKERVYLAEEGGRKVSQLDWKFNNAAIIKGAINWDLMPQISIGAAGWTTLGSRGGNMVDQDWMDSSNPGTWTHESRHPDTQLNYANEFDLNIKGWLLNEPNYRLGLMAGYQESRYSFTARGGSYIYSSEEGFRDDIGSFPNGERAIGYKQRFKMPYIGLTGSYRYEDFELGGTFKYSGWVESSDNDEHYDPGKRITYRSKVKDQNYYSVAVNAGYYVTPNAKVYVEGAWNRVTNKKGNTSLYDHNNNTSDYSKNGAGIENYNFITTAGLKYTF    less than 3%
OmpT protease variant OmpT D97C (protein) STETLSFTPDNINADISLGTLSGKTKERVYLAEEGGRKVSQLDWKFNNAAIIKGAINWDLMPQISIGAAGWTTLGSRGGNMVDQDWMDSSNPGTWTCESRHPDTQLNYANEFDLNIKGWLLNEPNYRLGLMAGYQESRYSFTARGGSYIYSSEEGFRDDIGSFPNGERAIGYKQRFKMPYIGLTGSYRYEDFELGGTFKYSGWVESSDNDEHYDPGKRITYRSKVKDQNYYSVAVNAGYYVTPNAKVYVEGAWNRVTNKKGNTSLYDHNNNTSDYSKNGAGIENYNFITTAGLKYTF    less than 3%
OmpT protease variant OmpT D97N (protein) STETLSFTPDNINADISLGTLSGKTKERVYLAEEGGRKVSQLDWKFNNAAIIKGAINWDLMPQISIGAAGWTTLGSRGGNMVDQDWMDSSNPGTWTNESRHPDTQLNYANEFDLNIKGWLLNEPNYRLGLMAGYQESRYSFTARGGSYIYSSEEGFRDDIGSFPNGERAIGYKQRFKMPYIGLTGSYRYEDFELGGTFKYSGWVESSDNDEHYDPGKRITYRSKVKDQNYYSVAVNAGYYVTPNAKVYVEGAWNRVTNKKGNTSLYDHNNNTSDYSKNGAGIENYNFITTAGLKYTF    less than 3%
